Origin of measurements: patent US8350027B2

The entries below are paired with their reported Ki.
- Assayed target: human AT1 receptor (Homo sapiens, UniProt P30556)
- Construct: expressed in transfected cells; host or cells: CHO-K1
- Sequence (P30556 whole entry): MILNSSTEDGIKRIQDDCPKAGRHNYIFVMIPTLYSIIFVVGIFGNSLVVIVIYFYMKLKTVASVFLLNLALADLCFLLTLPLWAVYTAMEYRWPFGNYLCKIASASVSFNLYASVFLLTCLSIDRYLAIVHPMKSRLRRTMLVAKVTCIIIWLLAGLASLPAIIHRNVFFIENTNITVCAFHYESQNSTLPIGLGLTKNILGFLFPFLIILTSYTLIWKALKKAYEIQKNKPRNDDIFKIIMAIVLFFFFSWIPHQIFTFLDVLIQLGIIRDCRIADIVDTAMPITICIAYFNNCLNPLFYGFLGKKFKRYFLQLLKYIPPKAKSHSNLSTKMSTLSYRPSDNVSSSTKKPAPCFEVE
- Assay text: AT1 radioligand binding assay (displacement of [Eu]AngII)
- Measurement setup: membranes of CHO-K1 cells expressing cloned human AT1 receptor; values given as lower bounds; read-out: AT1 pKi (converted)

Worked examples, 6 compounds total:
| Molecule smiles | Ki |
| --- | --- |
| CCCc1cc(C(=O)N[C@@H](CC(=O)OC)Cc2ccccc2C)nn1Cc1ccc(-c2ccccc2-c2nnn[nH]2)cc1 | ≤ 10 nM |
| CCOc1cc(C(=O)N[C@@H](CS)Cc2ccccc2)nn1Cc1ccc(-c2ccccc2S(=O)(=O)NC(C)=O)cc1F | ≤ 10 nM |
| CCCc1cc(C(=O)N[C@H](Cc2ccccc2)[C@@H](O)C(=O)O)nn1Cc1ccc(-c2ccccc2-c2nnn[nH]2)cn1 | ≤ 10 nM |
| CCCc1cc(C(=O)N[C@@H](CC(=O)O)Cc2ccccc2Cl)nn1Cc1ccc(-c2ccccc2-c2nnn[nH]2)cn1 | ≤ 100 nM |
| CCCc1cc(C(=O)N[C@H](Cc2ccccc2)[C@@H](O)C(=O)O)nn1Cc1ccc(-c2ccccc2S(=O)(=O)NC(=O)c2cc(C)on2)cc1 | ≤ 10 nM |
| CCCc1cc(C(=O)N[C@H](Cc2ccccc2)[C@@H](O)C(=O)O)nn1Cc1ccc(-c2ccccc2S(=O)(=O)NC(=O)c2ccccc2)cc1 | ≤ 10 nM |

QUERY: Ki for CCCc1cc(C(=O)N[C@H](Cc2ccccc2)[C@@H](O)C(=O)O)nn1Cc1ccc(-c2ccccc2-c2nnn[nH]2)nc1 ?
RESULT: ≤ 10 nM

QUERY: Ki for CCCc1cc(C(=O)N[C@@H](CC(=O)O)Cc2ccccc2Cl)nn1Cc1cnc(-c2ccccc2-c2nnn[nH]2)cn1 ?
RESULT: ≤ 10 nM

QUERY: Ki for CCCc1cc(C(=O)N[C@H](Cc2ccccc2Cl)[C@@H](O)C(=O)O)nn1Cc1ccc(-c2ccccc2-c2nnn[nH]2)cc1 ?
RESULT: ≤ 100 nM

QUERY: Ki for CCCc1cc(C(=O)N[C@@H](CS)Cc2ccccc2)nn1Cc1ccc(-c2ccccc2-c2nnn[nH]2)cc1 ?
RESULT: ≤ 10 nM
